# System: Vero cells
# method_description: Cytotoxicity assay (MTT)
# Type: cell-based
# test_context: MTT assays in Vero cells

>  <compound_structure_string>
O=C(O)CN1C(=O)C(=Cc2ccc(OCc3ccc(Cl)cc3)cc2)SC1=S

>  <measured_on>
Vero cells

>  <Cytotoxicity>
Low

$$$$
>  <compound_structure_string>
O=C(O)CN1C(=O)/C(=C/c2cccc(OCc3ccc(Cl)cc3Cl)c2)SC1=S

>  <measured_on>
Vero cells

>  <Cytotoxicity>
High

$$$$
>  <compound_structure_string>
O=C(O)CN1C(=O)/C(=C/c2ccc(OCc3ccccc3)cc2)SC1=S

>  <measured_on>
Vero cells

>  <Cytotoxicity>
Low

$$$$

* * *

# Test system: Vero cells
# method_description: Cytotoxicity assay (MTT)
# Format: cell-based

>  <compound_structure_string>
CCOc1cc(/C=C2\SC(=S)N(CC(=O)O)C2=O)ccc1OCc1ccc(Cl)cc1

>  <cytotoxicity from Vero cell MTT assays>
less cytotoxicity

$$$$
>  <compound_structure_string>
O=C(O)CN1C(=O)/C(=C/c2cccc(OCc3ccccc3Cl)c2)SC1=S

>  <cytotoxicity from Vero cell MTT assays>
less cytotoxicity

$$$$

* * *

# System: S. aureus Mu3
# method_description: Secondary screening of compound 13 analogues in combination with gentamicin (growth by OD 595 nm)
# test_context: [Cpd] 5 μM; BHI only (no gentamicin); relative to DMSO = 1
Label key: yes (1) means relative growth under 1; no (0) means relative growth of 1 or more.

Take the compound COC(=O)c1ccccc1 and say whether its relative growth is less than 1.
no (0)

In the record for O=C(O)CN1C(=O)/C(=C/c2ccccc2)SC1=S , is relative growth less than 1?
no (0)

Does the reported relative growth of COc1cc(C=C2SC(=S)N(CC(=O)O)C2=O)ccc1OCc1ccc(F)cc1Cl stay below 1?
yes (1)

relative growth strictly < 1 for this compound? O=C(O)CN1C(=O)C(=Cc2ccc(OCc3ccc(Cl)cc3)cc2)SC1=S
no (0)

Item COC(=O)CN1C(=O)C(=Cc2ccc(OCc3ccccc3)cc2)SC1=S : relative growth beneath 1, strictly?
yes (1)

* * *

# Tested on: S. aureus Mu3
# method_description: Secondary screening of compound 13 analogues in combination with gentamicin (growth by OD 595 nm)
# test_context: [Cpd] 20 μM; [Genta] 100 ug/ml; relative to DMSO = 1
// assign yes if relative growth falls strictly below 0.7, else no (ties count as no)

Here's an entry: CCOc1ccc(/C=C2\SC(=S)N(CC(=O)O)C2=O)cc1 . Is its relative growth below 0.7?
no

# strict comparison: is reported relative growth < 0.7? input = COc1cc(C=C2SC(=S)N(CC(=O)O)C2=O)ccc1OCc1ccc(F)cc1Cl
no

Is relative growth strictly under 0.7 for the entry O=C(O)CN1C(=O)/C(=C/c2cccc(OCc3ccccc3F)c2)SC1=S ?
yes

Please check: relative growth for COC(=O)CN1C(=O)C(=Cc2ccc(OCc3ccccc3)cc2)SC1=S , strictly under 0.7 or not?
yes

Determine if COc1cc(/C=C2\SC(=S)N(CC(=O)O)C2=O)ccc1OCc1ccccc1 shows relative growth strictly lower than 0.7.
no

Hi there! Is relative growth for CCCOc1ccc(/C=C2\SC(=S)N(CC(=O)O)C2=O)cc1 below 0.7, do you know?
no

* * *

# Test system: S. aureus Mu3
# method_description: Secondary screening of compound 13 analogues in combination with gentamicin (growth by OD 595 nm)
# test_context: [Cpd] 50 μM; [Genta] 100 ug/ml; relative to DMSO = 1
assay_endpoint: relative growth

Here is how some molecules turned out for relative growth.
>  <molecule>
COC(=O)c1ccccc1 [Compound 29]

>  <experimental_value>
*0.11

$$$$
>  <molecule>
COC(=O)CN1C(=O)C(=Cc2ccc(OCc3ccccc3)cc2)SC1=S

>  <experimental_value>
*0.27

$$$$
>  <molecule>
COc1cc(/C=C2\SC(=S)N(CC(=O)O)C2=O)ccc1OCc1ccc(Cl)cc1

>  <experimental_value>
*0.2

$$$$
>  <molecule>
COc1cc(C=C2SC(=S)N(CC(=O)O)C2=O)ccc1OCc1ccc(F)cc1Cl

>  <experimental_value>
0.9

$$$$

Quick one: relative growth of COc1cc(/C=C2\SC(=S)N(CC(=O)O)C2=O)ccc1OCc1ccccc1F ?
0.91

Endpoint output: relative growth of O=C(O)CN1C(=O)/C(=C/c2cccc(OCc3ccccc3Cl)c2)SC1=S . Value?
*0.09

relative growth lookup needed for O=C(O)CN1C(=O)C(=Cc2ccc(OCc3ccc(Cl)cc3)cc2)SC1=S , thanks.
*0.13

Recorded relative growth of O=C(O)CN1C(=O)/C(=C/c2ccc(OCc3ccccc3)cc2)SC1=S , please.
*0.09

Requested field: relative growth. Item: CCOc1cc(/C=C2\SC(=S)N(CC(=O)O)C2=O)ccc1OCc1ccc(Cl)cc1
*0.17

What value of relative growth has been reported for the following molecule? O=C(O)CN1C(=O)/C(=C/c2cccc(OCc3ccc(Cl)cc3Cl)c2)SC1=S
*0.14

* * *

# Test system: S. aureus Mu3
# method_description: Secondary screening of compound 13 analogues in combination with gentamicin (growth by OD 595 nm)
# test_context: [Cpd] 20 μM; [Genta] 100 ug/ml; relative to DMSO = 1
relative growth values, listed per item
Lab note: jot down the number only; don't add units.

Any idea what relative growth came out for COc1ccc(/C=C2\SC(=S)N(CC(=O)O)C2=O)cc1OCc1ccccc1 [Compound 24] on S. aureus Mu3?
0.92

Lab note: need relative growth for COCc1ccccc1 [Compound 52] on S. aureus Mu3, anyone have it?
0.89

Give recorded relative growth with S. aureus Mu3 for the following molecule: CC(C(=O)O)N1C(=O)/C(=C/c2ccc(Cl)cc2)SC1=S (stereo not shown) [Compound 53]
0.9

* * *

# Test system: S. aureus Mu3
# method_description: Secondary screening of compound 13 analogues in combination with gentamicin (growth by OD 595 nm)
# test_context: [Cpd] 50 μM; [Genta] 100 ug/ml; relative to DMSO = 1
Listed here: items and their measured relative growth.
Respond using a number only.

>  <compound>
COc1ccc(/C=C2\SC(=S)N(CC(=O)O)C2=O)cc1OCc1ccc(Cl)cc1Cl [Compound 18]

>  <experimental_value>
0.88

$$$$

Here is another compound to look at.
For the compound shown here, COc1cc(/C=C2\SC(=S)N(CC(=O)O)C2=O)ccc1OCc1ccccc1 [Compound 22] , give the reported relative growth.
0.91
